target: I-A^b (Mus musculus, UniProt P14434+P14483); assay: Competitive peptide binding to I-A^b; conditions: competitive binding study, procedure of ref 51; 'bound weakly'
pIC50: −log10 of the molar value. Where no end group is shown, it is not given here.

{"CHAIN": "AVEIHRPVPGTAPPS [AS15, AVEIHRPVPGTAPPS]", "pIC50": 6.38}
